All figures here come from PubChem BioAssay.

# Test system: Human papillomavirus type 1a protein E7 (residues 44-93)
# experimental details: small molecules binding HPV E7 44-93 – biochemical, small-molecule microarray, residues 44-93, 635 nm fluorescence, primary screen (AID 1108);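 also: E7 fragment applied at 1 µg/mL in TBST for 1 h at 4 C; score combines spot fluorescence with its signal to noise ratio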
# condition: fluorescence 635 nm, higher = more signal
Each record's composite z-score is compared with low = under 0.03, medium = from 0.03 up to 0.9, high = 0.9 and over to give its class.

molecule=CC(C)NC(=O)[C@@H]1c2ccccc2C(=O)N(Cc2ccccc2C(F)(F)F)[C@H]1c1ccc(CO)cc1 label=medium
molecule=COCCOC(=O)N1C(=O)[C@@]2(c3cc(C#CCCO)ccc31)[C@H](C(N)=O)[C@H]1C(=O)O[C@H](c3ccccc3)[C@H](c3ccccc3)N1[C@@H]2c1ccccc1OCCO label=high
molecule=CC[C@@H]1C=C(C(=O)O)[C@H](c2ccc(OC)cc2)N1S(=O)(=O)c1ccc(C)cc1 label=low
molecule=O=C1C[C@@](C(=O)NC2CC2)(c2ccc([N+](=O)[O-])cc2)[C@@H](c2ccc(CO)cc2)N1C1CCCCC1 label=high
molecule="CN1C(=O)C2C=CC(C(O)c3ccc(-c4ccccc4)s3)N(NC(=O)OC(C)(C)C)C2C1=O (centres undefined)" label=medium
molecule="C=CCC(OC(C)=O)[C@@H]1[C@@H](N(Cc2cccc3ccccc23)C(=O)c2ccc(-c3ccccc3)cc2)c2cc(OCCCO)ccc2N1C(=O)Cc1ccc2ccccc2c1 (some centres undefined)" label=low
molecule="COC(=O)C1(Cc2ccccc2)C=C2C(=C(C)C(=O)C2C)CN1 (centres undefined)" label=low
molecule="CC1CC/C=C\\[C@H]2OC34C=CCN(c5ccc(Cl)cc5)C(=O)[C@H]3N(CCCCCCO)C(=O)[C@]4(C)C2C(=O)O1 (some centres undefined)" label=low
molecule="COC(=O)C1=CC(CCCO)=CC(c2cccs2)N(Cc2cc3c(cc2Br)OCO3)C=C1C(=O)OC (centres undefined)" label=high
molecule=O=C1C=C(c2ccccc2)C(=O)C2=C1CC([C@H]1Oc3ccccc3S(=O)(=O)N3CCC[C@@H]13)=CC2 label=medium
molecule=C=CCNC(=O)[C@H]1[C@@H]2C(=O)O[C@@H](c3ccccc3)[C@@H](c3ccccc3)N2[C@@H](c2ccc(OCCO)cc2)[C@]12C(=O)Nc1ccccc12 label=high
molecule=[N-]=[N+]=Nc1ccccc1C[C@@]1(C(=O)NCc2ccccc2)N=C(c2ccc(OCCCO)cc2)O[C@@H]1c1ccccc1N=[N+]=[N-] label=low
molecule=O=C1C[C@]2(c3ccc([N+](=O)[O-])cc3)C(=O)N(C3CC3)c3cc(CO)ccc3[C@H]2N1C1CCCCC1 label=medium
molecule="[N-]=[N+]=Nc1ccccc1[C@H]1OC(c2ccc(OCCCO)cc2)=N[C@@]1(Cc1ccccc1)C(=O)NCC(O)CO (some centres undefined)" label=high

----------
# system name: Albumin (Bos taurus)
# experimental details: compounds binding labelled BSA control protein – biochemical, small-molecule microarray, Alexa647 label, 635/667 nm fluorescence, artefact control for SMM control protein annotation, profiling panel (AID 1118);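 also: score merges 667 nm emission intensity and signal-to-noise per printed compound spot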
# condition: BSA-A647 binding, fluorescence 635 nm, higher = more signal
Below, each entry is listed with its recorded composite z-score.
measurement label: composite z-score

compound="CCC(CC)C(O)C1C=CC2C(=O)N(c3ccccc3)C(=O)C2N1Nc1ccccc1F (stereo unspecified)" measurement_label="composite z-score" observed_result=0.86
compound="CC(=O)OCC1C2CC[C@H]3C(OCc4ccc(F)cc4C(F)(F)F)OC[C@]4(C)[C@H]3C2=C(CN4C(=O)OC(C)(C)C)[C@H](C)C1COC(C)=O (stereo partly specified)" measurement_label="composite z-score" observed_result=0.349
compound=C[N+](C)(C)CCCCNC(=O)[C@H]1C[C@H]2C(=O)N[C@@H](Cc3ccccc3)C(=O)N2[C@H]1c1cccc(OCCO)c1 measurement_label="composite z-score" observed_result=-1.43
compound=O=C1N(Cc2ccccc2)c2ccccc2C[C@@]12COC(c1ccc(OCCCO)cc1)=N2 measurement_label="composite z-score" observed_result=0.809
compound="CC(C)C[C@H]1NC(=O)C([C@@H](C)OCc2ccccc2)NC(=O)[C@@]23C(=O)N[C@@H](Cc4ccccc4)C2[C@H](C)[C@@]2(C)O[C@H]2C3/C=C/C/C=C\\CNC1=O (stereo partly specified)" measurement_label="composite z-score" observed_result=0.616
compound=C#CCN1[C@@H](Cc2ccccc2)C(=O)O[C@H](Cc2ccccc2)[C@@H]1/C=C/C1CC1 measurement_label="composite z-score" observed_result=-0.215
compound=CC(C)NC(=O)[C@@H]1c2ccccc2C(=O)N(Cc2ccc(OC(F)(F)F)cc2)[C@H]1c1ccc(CO)cc1 measurement_label="composite z-score" observed_result=-0.215
compound=C=C(CCCC)C(=O)CC[C@@H](OC(=O)c1ccccc1-c1ccccc1C(=O)O)c1ccccc1OCCO measurement_label="composite z-score" observed_result=0.269
compound=[N-]=[N+]=Nc1ccccc1C[C@@]1(C(=O)NCc2ccccc2)N=C(c2ccc(OCCCO)cc2)O[C@@H]1c1ccccc1N=[N+]=[N-] measurement_label="composite z-score" observed_result=0.913
compound=COc1ccc(C(=O)Nc2ccc(CN3C(=O)[C@@]4(O[C@@H](CCn5cc(CCO)nn5)[C@H]([Si](C)(C)c5ccc(OC)cc5)[C@H]4C)c4ccccc43)cc2)cc1 measurement_label="composite z-score" observed_result=0.264
compound=C=CCNC(=O)[C@H]1[C@@H]2C(=O)O[C@@H](c3ccccc3)[C@@H](c3ccccc3)N2[C@@H](c2ccccc2OCCO)[C@]12C(=O)N(C(=O)OCCOC)c1ccc(C#Cc3ccc(OC)cc3)cc12 measurement_label="composite z-score" observed_result=0.621
compound=COc1ccc([Si](C)(C)[C@@H]2[C@@H](CC(=O)N3Cc4ccccc4C[C@H]3CO)O[C@]3(C(=O)N(Cc4cccc(N5CCOC5=O)c4)c4ccccc43)[C@H]2C)cc1 measurement_label="composite z-score" observed_result=-0.699
compound=CN1C(=O)[C@@H]2[C@@H](CC(COc3ccccc3)=C3[C@@H](CCc4ccccc4)OB(O)C[C@@H]32)C1=O measurement_label="composite z-score" observed_result=-0.062
compound=COC(=O)[C@@]1(Cc2ccc(F)cc2)[C@H]2c3cc(C(=O)N4CCCC4)n(Cc4cc(F)cc5c4OCOC5)c3C[C@H]2CN1C(=O)c1ccccc1 measurement_label="composite z-score" observed_result=0.892
compound="CCCCCC1=C2CNC(CC(C)C)(C(=O)OC)C=C2C(C)C1=O (stereo unspecified)" measurement_label="composite z-score" observed_result=0.624
compound=CN(C)CCCNC(=O)[C@@]1(Cc2ccccc2I)c2ccccc2C(=O)N(C2CCCCC2)[C@H]1c1ccc(CO)cc1 measurement_label="composite z-score" observed_result=0.33
compound=CC1=C([C@H](O)CCc2ccccc2)[C@H](CO)n2c(=O)n(-c3ccccc3)c(=O)n2C1 measurement_label="composite z-score" observed_result=-0.348
compound="O=C1C2C=CC(C(O)C3CCCCC3)N(n3cnnc3)C2C(=O)N1Cc1ccccc1 (stereo unspecified)" measurement_label="composite z-score" observed_result=0.835
compound="CC(C)(C)OC(=O)CC[C@]1(C(=O)NCC(O)CO)N=C(c2ccc(OCCCO)cc2)O[C@H]1c1ccccc1N=[N+]=[N-] (stereo partly specified)" measurement_label="composite z-score" observed_result=1.02
compound=O=C1O[C@H](c2ccccc2)[C@H](c2ccccc2)N2[C@H]1[C@@H](C(=O)N1CCN(c3ncccn3)CC1)[C@]1(C(=O)Nc3ccc(C#CCCO)cc31)[C@H]2c1ccc(O)cc1 measurement_label="composite z-score" observed_result=0.627
compound=C=C(CCCC)/C(=C/C[C@H](OC(C)=O)c1cccc(OCCO)c1)c1cnc2ccccc2c1 measurement_label="composite z-score" observed_result=-0.0372
